biological target: Notch receptor (human); assay: cell-based or functional assay
measurement.name: IC50 (ng Ab/mL), MTS viability of OVCAR3 cells
API: value field is a number in ng Ab/mL; no unit string.

Solved entries:
# binder, val
measured = [
    ("Notch-75-v1913-hG1-(C)_mcValCitPABC-#112 (antibody, human IgG1, kappa, V domains shown, drug-linker mcValCitPABC-#112 on cysteine (C), positions not given; drug-linker mcValCitPABC-#112 on cysteine (C), positions not given; DAR 4.2 per antibody) VH: EVQLVESGGGLVQPGGSLRLSCAASGYAFTDYWMTWVRQAPGKGLEWVAEISPNSGGTNFNEKFKGRFTISVDNAKNSLYLQMNSLRAEDTAVYYCARGEIRYNWFAYWGQGTLVTVSS VL: DIQMTQSPSSLSASVGDRVTITCKASQNVGNNIAWYQQKPGKAPKLLIYYASNRYTGVPSRFSGSGYGTDFTLTISSLQPEDFATYYCQRLYNSPFTFGGGTKVEIKR", 254),
    ("Notch-28-v1010-hG1-(C)_mcValCitPABC-#112 (antibody, human IgG1, kappa, V domains shown, drug-linker mcValCitPABC-#112 on cysteine (C), positions not given; drug-linker mcValCitPABC-#112 on cysteine (C), positions not given; DAR 3.9 per antibody) VH: EVQLVESGGGLVQPGGSLRLSCAASGFTFRDYGMTWVRQAPGKGLEWVAYISSGSNYIYYAEAVKGRFTISRDNAKNSLYLQMNSLRAEDTAVYYCARRGPFVLDAWGQGTLVTVSS VL: DIQMTQSPSSLSASVGDRVTITCKASQSINRYLHWYQQKPGKAPKLLIYNANGLQTGVPSRFSGSGSGTDFTLTISSLQPEDFATYYCLQHNTWPDTFGGGTKVEIKR", 17),
    ("Notch-28-v1010-hG1-(C)_mcValCitPABC-#54 (antibody, human IgG1, kappa, V domains shown, drug-linker mcValCitPABC-#54 on cysteine (C), positions not given; drug-linker mcValCitPABC-#54 on cysteine (C), positions not given; DAR 3.9 per antibody) VH: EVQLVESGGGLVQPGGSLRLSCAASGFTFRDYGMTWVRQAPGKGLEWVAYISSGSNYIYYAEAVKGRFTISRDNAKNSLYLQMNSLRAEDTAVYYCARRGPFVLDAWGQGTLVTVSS VL: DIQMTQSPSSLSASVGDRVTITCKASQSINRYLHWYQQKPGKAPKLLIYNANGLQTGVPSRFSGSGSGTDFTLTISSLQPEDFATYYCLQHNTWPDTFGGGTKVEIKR", 306),
]

*Q* For the binder shown here, Notch-75-v1913-hG1-(C)_mcValCitPABC-#54 (antibody, human IgG1, kappa, V domains shown, drug-linker mcValCitPABC-#54 on cysteine (C), positions not given; drug-linker mcValCitPABC-#54 on cysteine (C), positions not given; DAR 3.8 per antibody) VH: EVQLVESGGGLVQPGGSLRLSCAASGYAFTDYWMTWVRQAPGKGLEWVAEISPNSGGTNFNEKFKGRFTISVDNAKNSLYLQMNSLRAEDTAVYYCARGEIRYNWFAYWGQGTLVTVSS VL: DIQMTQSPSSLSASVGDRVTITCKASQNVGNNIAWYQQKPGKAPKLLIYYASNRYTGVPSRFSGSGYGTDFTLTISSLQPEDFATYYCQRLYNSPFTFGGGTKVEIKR , give the reported IC50 (ng Ab/mL), MTS viability of OVCAR3 cells.
*A* 515

Reference for the values: patent US20130129753A1
